Just for reference, patent US8916567B2 is where these values come from.

Test system: E. feacium
Assay: Minimum inhibitory concentration (MIC) in vitro, agar dilution method
Format: cell-based
Conditions: strain Efm 197 (Table 8 No. 22)
Please provide measured MIC for the entries that follow.
Record the value in µg/mL, omitting the unit from your answer.

Query: Using the record for CN[C@H](CC(C)C)C(=O)N[C@H]1C(=O)N[C@@H](CC(N)=O)C(=O)N[C@H]2C(=O)N[C@H]3C(=O)N[C@H](C(=O)N[C@H](C(=O)O)c4cc(O)cc(O)c4-c4cc3ccc4O)[C@H](O)c3ccc(c(Cl)c3)Oc3cc2cc(c3O[C@@H]2O[C@H](CO)[C@@H](O)[C@H](O)[C@H]2O[C@H]2C[C@](C)(N)[C@H](O)[C@H](C)O2)Oc2ccc(cc2Cl)[C@H]1O [Vancomycin, reference compound] , report its MIC.
Result: 4

Query: Ok, now CC(=O)NC[C@H]1CN(c2ccc(N3CCOCC3)c(F)c2)C(=O)O1 [Linezolid, reference compound]
Result: 2

Query: Ok, now CC(=O)NC[C@H]1CN(c2ccc(N3CCN(c4ccccc4)CC3)c(F)c2)C(=O)O1 [Anhydrous compound]
Result: 2

Query: Ok, now CC(=O)NC[C@H]1CN(c2ccc(N3CCN(c4ccccc4)CC3)c(F)c2)C(=O)O1 [½ hydrate]
Result: 0.5
